target: Substance-K receptor (Oryctolagus cuniculus, UniProt P79218); test: Antagonist activity at NK-2 tachykinin receptors in rabbit pulmonary artery; format: functional; settings: read-out: pA2 (converted)
Sequence (P79218 whole entry): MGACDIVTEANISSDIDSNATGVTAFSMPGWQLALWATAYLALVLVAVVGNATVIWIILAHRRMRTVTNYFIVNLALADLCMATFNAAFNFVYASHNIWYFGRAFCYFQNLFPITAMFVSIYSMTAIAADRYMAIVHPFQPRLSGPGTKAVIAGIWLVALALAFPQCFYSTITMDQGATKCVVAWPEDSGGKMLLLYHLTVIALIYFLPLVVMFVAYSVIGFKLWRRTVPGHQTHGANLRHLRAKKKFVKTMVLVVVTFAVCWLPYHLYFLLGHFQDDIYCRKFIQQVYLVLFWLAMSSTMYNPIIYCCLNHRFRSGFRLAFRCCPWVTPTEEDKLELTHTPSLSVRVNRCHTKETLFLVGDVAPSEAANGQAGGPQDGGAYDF
Where a SMILES comes first, the peptide text is derived from it. [ ]: non-standard residue; d: D form. Cha = N[C@@H](CC1CCCCC1)C(=O)O; βAla = NCCC(=O)O

>  <molecule>
CC(C)C[C@@H]1CN[C@@H](Cc2ccccc2)C(=O)N[C@@H](CCC(N)=O)C(=O)N[C@@H](Cc2c[nH]c3ccccc23)C(=O)N[C@@H](Cc2ccccc2)C(=O)NCCC(=O)N1

>  <unit-descriptor>
µM

>  <Kb>
0.0794

$$$$
>  <molecule>
CC(C)C[C@@H]1CN(C)[C@@H](CC2CCCCC2)C(=O)N[C@@H](CCC(N)=O)C(=O)N[C@@H](Cc2c[nH]c3ccccc23)C(=O)N[C@@H](Cc2ccccc2)C(=O)NCCC(=O)N1

>  <unit-descriptor>
µM

>  <Kb>
0.117

$$$$
>  <molecule>
CC(C)C[C@@H]1NC(=O)CCNC(=O)[C@H](Cc2ccccc2)NC(=O)[C@H](Cc2c[nH]c3ccccc23)NC(=O)[C@H](CCC(N)=O)NC(=O)[C@H](CC2CCCCC2)NC1=O (cyclo([Cha]QWF[βAla]L))

>  <unit-descriptor>
µM

>  <Kb>
1.45

$$$$
>  <molecule>
CC(C)C[C@@H]1CN[C@@H](CC(=O)O)C(=O)N[C@@H](CCC(N)=O)C(=O)N[C@@H](Cc2c[nH]c3ccccc23)C(=O)N[C@@H](Cc2ccccc2)C(=O)NCCC(=O)N1

>  <unit-descriptor>
µM

>  <Kb>
1.07

$$$$

###

Biological target: Substance-K receptor (Mesocricetus auratus, UniProt P51144)
Sequence (P51144 whole entry): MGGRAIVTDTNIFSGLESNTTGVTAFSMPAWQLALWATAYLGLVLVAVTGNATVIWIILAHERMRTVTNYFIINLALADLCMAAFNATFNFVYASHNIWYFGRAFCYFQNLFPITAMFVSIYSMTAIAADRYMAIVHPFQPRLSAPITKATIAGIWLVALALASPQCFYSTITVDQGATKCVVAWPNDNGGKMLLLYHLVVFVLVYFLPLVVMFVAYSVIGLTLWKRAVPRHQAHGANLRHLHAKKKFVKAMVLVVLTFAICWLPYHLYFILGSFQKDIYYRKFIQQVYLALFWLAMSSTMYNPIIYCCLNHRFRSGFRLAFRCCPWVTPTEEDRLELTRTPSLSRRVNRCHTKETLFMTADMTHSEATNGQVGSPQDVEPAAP
Assay: Tested for antagonist activity at NK-2 tachykinin receptors in hamster trachea
Assay type: functional
Settings: read-out: pA2 (converted)
# Kb annotations
measure-name: Kb (µM)

>  <smiles-notation>
CC(C)C[C@@H]1CN[C@@H](CC(C)C)C(=O)N[C@@H](CCC(N)=O)C(=O)N[C@@H](Cc2c[nH]c3ccccc23)C(=O)N[C@@H](Cc2ccccc2)C(=O)NCCC(=O)N1

>  <measure-name>
Kb

>  <unit-descriptor>
µM

>  <quantitative-result>
0.0158

$$$$
>  <smiles-notation>
CC(C)C[C@@H]1CN[C@@H](CC(=O)O)C(=O)N[C@@H](CCC(N)=O)C(=O)N[C@@H](Cc2c[nH]c3ccccc23)C(=O)N[C@@H](Cc2ccccc2)C(=O)NCCC(=O)N1

>  <measure-name>
Kb

>  <unit-descriptor>
µM

>  <quantitative-result>
0.0676

$$$$
>  <smiles-notation>
CC(C)C[C@@H]1CN[C@@H](Cc2ccccc2)C(=O)N[C@@H](CCC(N)=O)C(=O)N[C@@H](Cc2c[nH]c3ccccc23)C(=O)N[C@@H](Cc2ccccc2)C(=O)NCCC(=O)N1

>  <measure-name>
Kb

>  <unit-descriptor>
µM

>  <quantitative-result>
0.0186

$$$$
>  <smiles-notation>
CSCC[C@@H]1NC[C@@H](CC(C)C)NC(=O)CCNC(=O)[C@H](Cc2ccccc2)NC(=O)[C@H](Cc2c[nH]c3ccccc23)NC(=O)[C@H](CCC(N)=O)NC1=O

>  <measure-name>
Kb

>  <unit-descriptor>
µM

>  <quantitative-result>
0.0129

$$$$
>  <smiles-notation>
CC(C)C[C@@H]1CN(C)[C@@H](CC2CCCCC2)C(=O)N[C@@H](CCC(N)=O)C(=O)N[C@@H](Cc2c[nH]c3ccccc23)C(=O)N[C@@H](Cc2ccccc2)C(=O)NCCC(=O)N1

>  <measure-name>
Kb

>  <unit-descriptor>
µM

>  <quantitative-result>
0.0038

$$$$
>  <smiles-notation>
CC(C)C[C@@H]1CN[C@@H](CCCCNC(=O)OCc2ccccc2)C(=O)N[C@@H](CCC(N)=O)C(=O)N[C@@H](Cc2c[nH]c3ccccc23)C(=O)N[C@@H](Cc2ccccc2)C(=O)NCCC(=O)N1

>  <measure-name>
Kb

>  <unit-descriptor>
µM

>  <quantitative-result>
0.00676

$$$$
